Test: Solid-state chemical stability: degradation products by UPLC/HPLC after stress storage
Format: physicochemical
Conditions: Xenon light (approx. 1200 kLuxh), clear vial
Entries and their DP % (Degradation Product), Clear vial (HPLC) values follow.
State the answer as a number, implicitly in %.

As a guide, the following entries are already answered.
compound="Cc1nc(C)c(C(=O)Nc2ccc(F)c(-c3nc4ncc(-c5ncccc5C)cn4n3)c2)o1 [Form B]" value_reported=1.6
compound="Cc1nc(C)c(C(=O)Nc2ccc(F)c(-c3nc4ncc(-c5ncccc5C)cn4n3)c2)o1 [Form C]" value_reported=1.8
compound="Cc1nc(C)c(C(=O)Nc2ccc(F)c(-c3nc4ncc(-c5ncccc5C)cn4n3)c2)o1 [Free Form]" value_reported=0.6

[in] So what's the measured DP % (Degradation Product), Clear vial (HPLC) for this one? Cc1nc(C)c(C(=O)Nc2ccc(F)c(-c3nc4ncc(-c5ncccc5C)cn4n3)c2)o1 [Amorphous Compound I Fumaric Acid (1:1)]
[out] 4.5

[in] Now this one: Cc1nc(C)c(C(=O)Nc2ccc(F)c(-c3nc4ncc(-c5ncccc5C)cn4n3)c2)o1 [Compound I Fumaric Acid Co-crystal (2:1)]
[out] 1.2

[in] Also need Cc1nc(C)c(C(=O)Nc2ccc(F)c(-c3nc4ncc(-c5ncccc5C)cn4n3)c2)o1 [Amorphous Compound I Fumaric Acid (2:1)] , thanks.
[out] 10.6

###

DP % (Degradation Product), Bulk (UPLC) values by entry
Assay: Solid-state chemical stability: degradation products by UPLC/HPLC after stress storage
Assay type: physicochemical
Conditions: Solid state, 1 week 50° C., closed container
Express it in %; write the number only.

Reference set (3 entries):
compound="Cc1nc(C)c(C(=O)Nc2ccc(F)c(-c3nc4ncc(-c5ncccc5C)cn4n3)c2)o1 [Form C]" value_reported=1.8
compound="Cc1nc(C)c(C(=O)Nc2ccc(F)c(-c3nc4ncc(-c5ncccc5C)cn4n3)c2)o1 [Form B]" value_reported=1.8
compound="Cc1nc(C)c(C(=O)Nc2ccc(F)c(-c3nc4ncc(-c5ncccc5C)cn4n3)c2)o1 [Free Form]" value_reported=0.6

Query compound follows.
[in] Could you tell me which DP % (Degradation Product), Bulk (UPLC) is on file for Cc1nc(C)c(C(=O)Nc2ccc(F)c(-c3nc4ncc(-c5ncccc5C)cn4n3)c2)o1 [Compound I Fumaric Acid Co-crystal (2:1)] ?
[out] 1.2

###

Experiment: Solubility in various media at 25° C. after 24 hours equilibration (UPLC)
Assay type: physicochemical
Details: FaSSIF pH 6.5; 25° C., 24 hours equilibration
measurement-name: solubility (µg/mL)
Reply numerically in µg/mL, unit not repeated.

Consider the worked cases shown below.
compound="Cc1nc(C)c(C(=O)Nc2ccc(F)c(-c3nc4ncc(-c5ncccc5C)cn4n3)c2)o1 [Amorphous Compound I Fumaric Acid (2:1)]" display_unit=µg/mL value_reported=3
compound="Cc1nc(C)c(C(=O)Nc2ccc(F)c(-c3nc4ncc(-c5ncccc5C)cn4n3)c2)o1 [Amorphous Compound I Fumaric Acid (1:1)]" display_unit=µg/mL value_reported=7
compound="Cc1nc(C)c(C(=O)Nc2ccc(F)c(-c3nc4ncc(-c5ncccc5C)cn4n3)c2)o1 [Form B]" display_unit=µg/mL value_reported=7

[in] Endpoint output: solubility of Cc1nc(C)c(C(=O)Nc2ccc(F)c(-c3nc4ncc(-c5ncccc5C)cn4n3)c2)o1 [Free Form] . Value?
[out] 4
